# Test system: MS2 coat protein
# ASSAY_NOTES: apparent KD of MS2 coat protein; designed switch direction (-1 OFF switch, 1 ON switch): 1; higher = weaker reporter binding
# STUDY_CONDITIONS: input ligand: none
PROPERTY: apparent KD of MS2 coat protein (nM)
Please state the figure in nM; there is no need to write the unit.

Completed entries (count: 3):
GUAGCAUACCGAGGAUAUUCAUAUUAUACAUGAGGAUCACCCAUGUAAGGCCGAUUACGGCCUUGGGAGAAGGCGGAAUGCUAC [Xeonanis - 20 Mod21] (Eterna round: R96, puzzle: Same State NG 2) ... 105
ACAUGAGACUUAGGAUAUGUUGUACCUACAUGUGACAUGAGGAUCACCCAUGUGGUAAGUAUGAUACAGAAGGAAGAGAUAUGU [Equivalance 66 - Jieux - Same State NG 2] (Eterna round: R96, puzzle: Same State NG 2) ... 42.9
GUUACAUGAGGAUCACCCAUGUAUGUGUGGGAGUAAGUGUCUUAGGAUAUCUAUCAUUAAAUUUAAGAGAAGGAAGAUUGUUGU [JMF's solution 91] (Eterna round: R96, puzzle: Same State NG 3) ... 121

Attention now shifts to the item below.
Could you share what apparent KD of MS2 coat protein was measured for UGUUUGUUGUGAGGAUAUACAUACACCUUACAUGAGGAUCACCCAUGUUGUUACUUUGAUAGUUAGUAGAAGGCACUUGGUUAU [JR_SSNG2_Sub047] (Eterna round: R96, puzzle: Same State NG 2) , tested on MS2 coat protein?
140

----------
# Tested on: MS2 coat protein
# ASSAY_NOTES: apparent KD of MS2 coat protein; higher = weaker reporter binding
# STUDY_CONDITIONS: Eterna round: R107; input ligand: tryptophan 2.4 mM
PROPERTY: apparent KD of MS2 coat protein (nM)
Please state the figure in nM; there is no need to write the unit.

AAACGUUGCUCAGAUACCAGACAUGAGGAUCACCCAUGUACCAAGGUAAAGAAAUAACGUGUCCCUUGGCAGCUGAGCAACGAAA [MAT - Exclusion Theophlline B - Mod of Eli - D11] ... 11.1
CGUAUUACGAAAGUAGUACGUAGUGUUCGACGAGGACCGGUACGGCCGCCACUCGGACAUGAGGAUCACCCAUGUAGCGAAAGCU [Tryptophan A 24] ... 28.3
AGUGUUGUAACUGAUACCAGACCUUUGCUUAUACAUGAGGAUCACCCAUGUAAAAUGGCGGUCCCUUGGCAGCAGAGAAGACGCA [#10 Same State - Theophylline B] ... 41.9
GCACCAGGUACGGAUACCAGCUAUAGGCACAGAGGAGGACAUGAGGAUCACCCAUGUGAUGGCCCUUGGCAGCUGUACCUGGUGC [EThB NP+V+V2 #3] ... 10.6

Which value of apparent KD of MS2 coat protein has been reported for UUGUUGUUUGGAAGGAGCGUGUAAGAUUAAGAACAUGAGGAUCACCCAUGUUGUAAGGUAGCACAGGUAGGUCGCCGGGUGGUGG [11.T] in the records?
15.1

Which value of apparent KD of MS2 coat protein has been reported for AUGGACGGCGAUCUGGGUUUACCAGAUCGGCGAGGACCGGUACGGCCGCCACUCGUGUUUAUUUAACAUGAGGAUCACCCAUGUA [SSTA #2] in the records?
21.3

----------
# Test system: MS2 coat protein
# ASSAY_NOTES: apparent KD of MS2 coat protein; designed switch direction (-1 OFF switch, 1 ON switch): -1; higher = weaker reporter binding
# STUDY_CONDITIONS: input ligand: FMN 200 uM
# apparent KD of MS2 coat protein per entry
Please state the figure in nM; there is no need to write the unit.

Completed entries (count: 2):
GAAGGGCGUCUAGGAUAUAGUAUACGGCGAACAUGAGGAUCACCCAUGUGUCCGAAUGCGGCGAGCUAGAAGGAGAAUUCGCCC [Enuseszave] (Eterna round: R96, puzzle: Exclusion NG 2) ... 72.4
CCCGCAGGCUUUUUGCUCGACAUGAGGAUCACCCAUGUUGUAUGGGUUGUGUGUGUGUGGUGCAUAUAUAUGGUCCU [-25.6, -50.1 kcal, A 16%] (Eterna round: R97, puzzle: Sensor, turn-off variant 1) ... 313

Which value of apparent KD of MS2 coat protein has been reported for AAUGAUUGACGAGGAUAUUGUGGUAAAACACGACGAGAAGGCGUCUGUCACAUGAGGAUCACCCAUGUGAGCUUUGUGGAUAGA [Ex NG1 #72] (Eterna round: R96, puzzle: Exclusion NG 1) in the records?
52.3

Which value of apparent KD of MS2 coat protein has been reported for CUUGUGUGAGGAUAUGCGUAGGCAGUAAGUAAGUAGCCGGAGCAGAAGGCACAUGAGGAUCACCCAUGUGUUAC [EX4 B.1] (Eterna round: R97, puzzle: Exclusion 4) in the records?
121

Which value of apparent KD of MS2 coat protein has been reported for UUAAAUCAUGUAGGAUAUGCGUGGCGAAGCUAUGCAGAAGGACAUGAGGAUCACCCAUGUUCCUGCGUCCGCGUACGGAUGCAA [JL Eng1 1.21 mod] (Eterna round: R96, puzzle: Exclusion NG 1) in the records?
167

Which value of apparent KD of MS2 coat protein has been reported for GAAUUAAUUAAUUAAUAAUACAUGAGGAUCACCCAUGUAGAUCCUACAUACAAUUUAAGUAGCUCGUCUUAUAAUUA [Stov1/1-A2] (Eterna round: R97, puzzle: Sensor, turn-off variant 1) in the records?
108

Which value of apparent KD of MS2 coat protein has been reported for UUUUAGUAAGGAUAUGAUUAGAUCUACGAAAGUAGAUCUAAUCAGAAGGUACAUGAGGAUCACCCAUGUAGAUU [Mod of Brourd 3 - Jieux - Exclusion 4] (Eterna round: R97, puzzle: Exclusion 4) in the records?
24.2

Which value of apparent KD of MS2 coat protein has been reported for UGUUUAUAUGAAGGAUAUACUUAACAUGAGGAUCACCCAUGUGGUGUUGUGAGUGAGUGAGUUUAGUAGAAGGUCAAGUAUUUU [JMF's solution 54] (Eterna round: R96, puzzle: Exclusion NG 2) in the records?
681

Which value of apparent KD of MS2 coat protein has been reported for UUUAAACAUGAGGAUCACCCAUGUAAGGAUAUACGAAUGCAGACACACACGGAUGCAAGUAGAAGGUACAAUGC [Design #9] (Eterna round: R97, puzzle: Exclusion 1) in the records?
37.6

----------
# apparent KD of K4 kissing-loop reporter per entry
# Tested on: K4 kissing-loop RNA reporter;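 further: bound reporter read as fluorescence of individual clusters on recovered sequencing chips by microscopy, with normalized cluster intensities fitted with a binding model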
# ASSAY_NOTES: apparent KD of K4 kissing-loop reporter; higher = weaker reporter binding
# STUDY_CONDITIONS: Eterna round: R107; input ligand: none
Please state the figure in nM; there is no need to write the unit.

Completed entries (count: 4):
AGAUUCGACACGGCCGCCACUUCCAGUGGCUGGUGUCAUGGUGCACGUGAGUGAUGUUUAUGUGGAAGGACCGGGUGUUGAGUCU [KL-XTryp-B2 #analogue] ... 670
AAUAAAAUCACGGCCGCCACUGAAUAAUUACGAAGUAGUGAUGUUACUUCACAUAUCUUAUUUAACAGGACCGGGUGAAUAUUUA [#16 K4 Tryptophan B Exclusion] ... 70.9
UCUGGAGCAUAUGAUACCAGCAGUGAGAGACAGGAAGUAUAGUGAUGUUAUAUGAGAGAAUGCCCUUGGCAGCGUGUGCAGUGGG [SSTheophylB.O] ... 108
UGGAGUGCCUGGUCGUCACUAUGCCAACCACGAGGACCGGUACGGCCGCCACUCGUGAGGGAUAUUCAGAAAGUGAUGUUUUUUG [theeternabot_exclusion_KL_Trp_A_1] ... 529

Which value of apparent KD of K4 kissing-loop reporter has been reported for UGCAUGCUUGGAGUGAUGUUCCAAGAUGAUACCAGUGCUUUUUUGCACCCUUGGCAGCGUCUGAUUGCAUGCACGUCGAAAGACG in the records?
529

Which value of apparent KD of K4 kissing-loop reporter has been reported for AAAUCUUUCAGAAGGAGCGUGGAUUAUUCAUAUAUAUUUAUUACGAGUGAUGUUCGUAAUUCACAGGUAGGUCGCUGUUCAAUAA [JR_ExcArginiB_Sub005] in the records?
113

Which value of apparent KD of K4 kissing-loop reporter has been reported for UAUAUAGUGACGGCCGCCACUAUAUUAAUGUUUUUGUUAGAGUGAUGUUUUGAUUAAUAUUUUUAUAGGACCGGGUUAUAUGUUA [xzzxmullin] in the records?
634

Which value of apparent KD of K4 kissing-loop reporter has been reported for UGUGAGCUGUCGACAAAAGUCGACUAAAACGAGGAUAUGACGAAAGUCAGAAGGCGUCAAUAAUGGAGUGAUGUUCCUGCUCACU [FmnA 9 #SwitchBubble #K4Late] in the records?
552
